- assay.procedure: in vivo
- condition.details: rat, po, female, solution in DMSO, read-out: LD 50, rats female
measured.property: LD50 (mg/kg)
Respond with the bare value in mg/kg.

// solved cases for LD50 follow
- C=CCn1c(=O)c2[nH]c(C)nc2n(CC(C)C)c1=O: 17
- CCCn1c(=O)c2[nH]c(C)nc2n(CC(C)C)c1=O: 19

Which LD50 is listed for "CCCCn1c(=O)n(CCC)c(=O)c2[nH]c(C)nc21" ?
15

###

- assay.procedure: in vivo
- condition.details: rat, po, male, solution in DMSO, read-out: LD 50, rats male
measured.property: LD50

- C=CCn1c(=O)c2[nH]cnc2n(CCCC)c1=O [Example 2, 1-allyl-3-butyl xanthine]: > 200 mg/kg
- CCCCn1c(=O)n(CCC)c(=O)c2[nH]c(C)nc21 [Example 11, 1-propyl-3-butyl-8-methyl xanthine]: 25 mg/kg
- CCCn1c(=O)c2[nH]c(C)nc2n(CC(C)C)c1=O [Example 12, 1-propyl-3-isobutyl-8-methyl xanthine]: 28 mg/kg

Now for the molecule whose LD50 we want.
Which LD50 is listed for C=CCn1c(=O)c2[nH]c(C)nc2n(CC(C)C)c1=O [Example 4, 1-allyl-3-isobutyl-8-methyl xanthine] ?
23 mg/kg

###

# Lookup of reported LD50 keyed by entry
- assay.procedure: in vivo
- condition.details: mouse, po, male, solution in DMSO, read-out: LD 50, mice male
Respond with the bare value in mg/kg.

- C=CCn1c(=O)c2[nH]c(C)nc2n(CC(C)C)c1=O: 79

Now for the compound whose LD50 we want.
Which LD50 is listed for "CCCCn1c(=O)n(CCC)c(=O)c2[nH]c(C)nc21" ?
91

###

- assay.procedure: in vivo
- condition.details: mouse, po, female, solution in DMSO, read-out: LD 50, mice female
measured.property: LD50 (mg/kg)
Respond with the bare value in mg/kg.

• CCCCn1c(=O)n(CCC)c(=O)c2[nH]c(C)nc21 = 151

Which LD50 is listed for "C=CCn1c(=O)c2[nH]c(C)nc2n(CC(C)C)c1=O" ?
49
